Test system: OVCAR-5
experimental-protocol: NCI tumour cell line growth inhibition, 48 h
Active and inactive are the calls of the source. Cut-off read from the data, not from the text of the source: active = GI50 up to about 1.1 µM and inactive = higher.
Please state which outcome applies, choosing from active, inactive

Recorded test call requested for Cc1cc(-n2nnc(C(=O)O)c2-c2ccccc2)c2ccc(Cl)cc2n1
inactive

// return assay outcome for Cc1ccc(OCC2OC(n3cnc4nc(Cl)nc(Cl)c43)CC2Oc2ccc(C)cc2)cc1 (configuration not stated)
inactive

Can you look up the reported call for CCC1(c2ccc(N3C(=O)c4cccc5cc([N+](=O)[O-])cc(c45)C3=O)cc2)CCC(=O)NC1=O (configuration not stated) for me?
inactive

Assay result, entry N#C/N=C(/N)NCc1ccccc1 — outcome?
inactive

###

Tested on: SK-MEL-2
experimental-protocol: NCI tumour cell line growth inhibition, 48 h
Calls of active or inactive are those of the source. No stated cut-off is given here; in the data, active = GI50 up to about 1.1 µM and inactive = higher.
Listing of recorded GI50 by entry.

Consider the worked cases shown below.
>>> df
                                   compound  reported_endpoint            observed
0  COC(=O)/C=C(\S/C=C(/c1ccccc1)N1CCn2c(C(=O)c3ccccc3)c(C(=O)OC)c(C(=O)OC)c21)C(=O)OC               GI50  > 10 µM (inactive)
1  N#Cc1c(C#N)c(-c2ccccc2)n(/N=C\c2ccccc2)c1N               GI50  22.2 µM (inactive)

GET /value?item= COC(CNC(=O)C(C)NC(=O)C(C)NC(=O)c1ccccc1)OC (stereo not drawn) &field=GI50 returns > 100 µM (inactive)

###

Below is a list of entries, each paired with its recorded GI50 value.
System: ACHN
experimental-protocol: NCI tumour cell line growth inhibition, 48 h
The source made the active and inactive calls. No stated cut-off is given here; in the data, active = GI50 up to about 1.1 µM and inactive = higher.

Example results:
                                   molecule             observed
0  C=C1C(=O)OC2CC1C(O)C/C(C)=C/CC/C(C)=C/C(O)CC2C (stereo unspecified)   1.65 µM (inactive)
1         N=c1sc(N2CCOCC2)nn1CC(=O)c1ccccc1  > 100 µM (inactive)
2                      c1cc(CCN2CCCCC2)ccn1  > 100 µM (inactive)
3  O=C1C=CC(S(=O)(=O)C2=C/C(=C/Nc3ccc(Cl)cc3)C(=O)C=C2)=C/C1=C/Nc1ccc(Cl)cc1  > 100 µM (inactive)
4  CC1=C(C(=O)c2ccccc2)C23C(=O)N(c4ccccc4)C(=O)C2=C(O)C=CC3(O)N1 (stereo unspecified)   15.9 µM (inactive)

Now look at this one.
Value of GI50 reported for the molecule COc1ccc(OCC(=N/NC(=O)c2ccncc2)/N=C/c2ccncc2)cc1 is > 100 µM (inactive)

###

System: KM12
experimental-protocol: NCI tumour cell line growth inhibition, 48 h
Activity calls are given as the source filed them. No stated cut-off is given here; in the data, active = GI50 up to about 1.1 µM and inactive = higher.
reported-endpoint: GI50

molecule	observed
Nc1c(-c2nc3ccccc3o2)sc(=S)n1-c1ccc(Cl)cc1	22.4 µM (inactive)

# lookup: CC(C(=O)c1ccc(O)cc1)C1(O)C(=O)Nc2c(Cl)cc(Cl)cc21 (stereo not drawn) on KM12, GI50 = > 87.3 µM (inactive)

For the molecule O=C1C(Cl)C(c2cc(Br)ccc2O)N1n1cnc2ccccc2c1=O (stereo not drawn) , the measured GI50 on KM12 was 20.7 µM (inactive)

Record COc1ccc(OCC(=N/NC(=O)c2ccncc2)/N=C/c2ccncc2)cc1 ; system KM12; GI50 = 60 µM (inactive)

For CCOc1ccccc1NC(=O)CCc1nnc2s/c(=C\CCc3ccccc3)c(=O)n12 on KM12, measured GI50 was > 100 µM (inactive)

Record CC(C)(Oc1ccc(C2C[C@H]2Cl)cc1)C(=O)O (stereo partly drawn) has KM12 GI50 equal to > 100 µM (inactive)

Reported KM12 GI50 for item CCCCCCNC(=O)c1cnc(Cl)cn1 was 15.9 µM (inactive)

###

Tested on: T47D
experimental-protocol: NCI tumour cell line growth inhibition, 48 h
The source made the active and inactive calls. Rule as the data show it: active = GI50 up to about 1.1 µM and inactive = higher.
reported-endpoint: GI50

Solved cases (5 shown):
In [3]: df
Out[3]:
                                   compound  reported_endpoint            observed
0  O=[N+]([O-])C(=C(Nc1ccccc1)Nc1ccccc1)/C(Cl)=C(\Cl)[N+](=O)[O-]               GI50  2.02 µM (inactive)
1                S=c1sscc1N1CCSc2ssc(=S)c21               GI50  20.8 µM (inactive)
2  CCN(CC)C1Oc2cc3c(cc2C(c2cc(OC)c(OC)c(OC)c2)C1C)OCO3 (stereo not drawn)               GI50  9.35 µM (inactive)
3  CCC(=O)Nc1ccc(N2C(=O)C(Cl)C2c2ccc(SC)cc2)cc1 (stereo not drawn)               GI50  73.6 µM (inactive)
4  O=C1C=CC(=O)c2c1ccc1c3ccccc3n(CCCCCn3c4ccccc4c4ccc5c(c43)C(=O)C=CC5=O)c21               GI50  4.81 µM (inactive)

For reference, reported GI50 for Nc1nc(-c2ccccc2)c(Cl)c(-c2cc(Cl)ccc2O)n1 stands at 3.15 µM (inactive)

Summary for this compound, Cc1ccc(S(=O)(=O)NCCCSCCSCCCN)cc1 : GI50 is > 100 µM (inactive)

Lab note: measured GI50 of CC(C)(C)OC(=O)NCC(C#N)CNC(=O)OC(C)(C)C was > 100 µM (inactive)

Noted for COC(CNC(=O)C(C)NC(=O)C(C)NC(=O)c1ccccc1)OC (stereo not drawn) : its GI50 reads > 100 µM (inactive)

GI50 for O=P(Oc1ccc(Cl)cc1)(Oc1ccc(Cl)cc1)N1CC1 is > 10 µM (inactive)

Lab note: measured GI50 of COc1ccc(Cc2nc3cc([N+](=O)[O-])ccc3n2C[C@@H]2CCCN3CCCCC23)cc1 (stereo partly drawn) was 33.1 µM (inactive)

Reported GI50 ( CC(C)(NO)/C(=N\O)c1ccccc1 ) = > 10 µM (inactive)

Lab book: GI50 of NCCC(=O)NC(Cc1c[nH]cn1)C(=O)O (stereo not drawn) noted as > 100 µM (inactive)

Reported GI50 for CCC1(C)C=Cc2c(cc(O)c3c(=O)c4ccccc4n(C)c23)O1 (stereo not drawn) was > 10 µM (inactive)

// GI50 value for N=c1nc(N)nc(N)n1-c1ccc(S(N)(=O)=O)cc1 : > 100 µM (inactive)

###

GI50 values by entry
System: MDA-N
experimental-protocol: NCI tumour cell line growth inhibition, 48 h
Active and inactive are the calls of the source. Rule as the data show it: active = GI50 up to about 1.1 µM and inactive = higher.

Study these solved cases before continuing.
                                   compound  experimental_target            observed
0      Cc1cccc(C)c1/N=N/c1ccc(O)c(CN(C)C)c1                MDA-N  50.8 µM (inactive)
1  CCOC(=O)c1c(-c2ccc(Cl)cc2)c(C#N)c(=S)n(C2OC(CO)C(O)C(O)C2O)c1-c1ccccc1 (stereo not drawn)                MDA-N    23 µM (inactive)

Turning now to a further compound:
Record summary for O=C(OCC(OC(=O)c1ccccc1)C(OC(=O)c1ccccc1)C(OC(=O)c1ccccc1)c1cnn(-c2ccccc2)n1)c1ccccc1 (stereo not drawn) : reported GI50 = > 100 µM (inactive)

###

Test system: SF-295
experimental-protocol: NCI tumour cell line growth inhibition, 48 h
Activity calls are given as the source filed them. Rule as the data show it: active = GI50 up to about 1.1 µM and inactive = higher.
reported-endpoint: GI50

The molecule listed as Oc1ccc(/C=C/c2cc(O)cc(O)c2)cc1 shows GI50 equal to 44 µM (inactive)

###

Test system: SK-MEL-5
experimental-protocol: NCI tumour cell line growth inhibition, 48 h
Activity calls are given as the source filed them. Cut-off read from the data, not from the text of the source: active = GI50 up to about 1.1 µM and inactive = higher.
Select the matching outcome among active, inactive

Kindly provide the recorded test outcome for the following compound: O=C(Cn1ccnc1[N+](=O)[O-])c1ccc(F)cc1
inactive

For Oc1c(/N=N\c2ccccc2)c2cccc3ccc4cccc1c4c32 , what call appears in the results of this test?
inactive

Check the results log: what was the call for CNNC1=NS(=O)(=O)c2cc(C(=O)OC)c(Cl)cc2S1 ?
inactive

Entry CCCCNC(=O)Cn1c2ccc(Br)cc2c2nc3ccccc3nc21 : call = ?
inactive

I would be grateful if you could indicate the recorded call for CN(C)CCn1c(=O)c2ccc(NCCCN(C)CCCNc3ccc4c(=O)n(CCN(C)C)c(=O)n5c6ccc([N+](=O)[O-])cc6c(=O)c3c45)c3c(=O)c4cc([N+](=O)[O-])ccc4n(c1=O)c23 .
active

What is the recorded call for this compound in the test? c1ccc2cc(NCNc3ccc4ccccc4c3)ccc2c1
inactive

Hi team, can someone confirm the assay call for Nc1nc2c(ncn2C2CCC(CO)O2)c(=O)n1C(=O)c1ccccc1 (configuration not stated) ?
inactive

For COCCNC1CCC2(SCCS2)c2[nH]c3ccccc3c21 (configuration not stated) , which call appears in the assay record?
inactive

I would be grateful if you could indicate the recorded call for COC(=O)C(/C(=N\O)C(=O)Nc1cccc(Cl)c1C)c1cnc2ccccc2n1 (configuration not stated) .
inactive
